# Assay target: Large T antigen (Simian virus 40)
# Assay info: SV40 large T antigen inhibitors, biochemical (AID 1903)
# Study conditions: SV40 large T antigen ATPase/helicase inhibition assay; at 20 µM; stronger effect = higher value
About 1,200 (0.39%) of roughly 310,000 compounds were called active. Only a sample is shown. Potency and affinity values are given separately.
inhibition vs 10%: at or above is true, below is false.

| Compound | Assay target | Assigned category |
| --- | --- | --- |
| O=C1c2ccccc2CCCC12N=NCC2c1cccc2ccccc12 (configuration not stated) | Large T antigen (Simian virus 40) | false |
| C/C(CC(=O)Nc1ccc(N(C)C)cc1)=N\NC(=O)c1ccccn1 | Large T antigen (Simian virus 40) | true |
| CC(=O)c1ccc(OC(=O)CN2C(=O)c3ccccc3C2=O)cc1 | Large T antigen (Simian virus 40) | true |
| Cc1c(NC(=O)c2cccc(-c3cc4ccccc4oc3=O)c2)cccc1-c1nc2ncccc2o1 | Large T antigen (Simian virus 40) | false |
| N#CCn1c(Cc2ccccc2)nc2ccccc2c1=O | Large T antigen (Simian virus 40) | true |
| CCOC(=O)C1CCN(C(=O)COc2cccc(C)c2)CC1 | Large T antigen (Simian virus 40) | false |
